Taken from the supplement of paper PMC4954754.

System: HEK293T-Rex XBP1-RLuc
Assay: EC50 for XBP1-RLuc reporter activation
Conditions: 18 h
measurement_label: EC50 for XBP1-RLuc reporter activation

Examples from the recorded data:
O=[N+]([O-])c1ccccc1N/N=C/c1ccc(O)c(O)c1 ... > 16.9 µM
Oc1ccc(-c2csc(-c3ccccc3)n2)cc1O ... 11.3 µM

For the compound `CCN1C(=O)/C(=C\c2ccc(O)cc2O)SC1=S` , the measured EC50 for XBP1-RLuc reporter activation on HEK293T-Rex XBP1-RLuc was > 16.9 µM

For the compound `CN(C)c1ccc(/C=N/NC(=O)c2cccc(Br)c2)cc1` , the measured EC50 for XBP1-RLuc reporter activation on HEK293T-Rex XBP1-RLuc was > 16.9 µM

For the compound `Fc1ccc(-c2nnc3ccc(N4CCN(c5ccccn5)CC4)nn23)cc1` , the measured EC50 for XBP1-RLuc reporter activation on HEK293T-Rex XBP1-RLuc was > 16.9 µM

For the compound `O=C1N/C(=C/c2ccc(O)cc2)C(=O)N1Cc1ccc(Br)cc1` , the measured EC50 for XBP1-RLuc reporter activation on HEK293T-Rex XBP1-RLuc was 4.02 µM

For the compound `Cc1ccccc1-c1cc(=O)c2cc(Cl)ccc2o1` , the measured EC50 for XBP1-RLuc reporter activation on HEK293T-Rex XBP1-RLuc was > 17 µM
